Target: EGFR V3 (Homo sapiens, UniProt P00533, DELINS30-297G)
Construct: expressed in transfected cells; host or cells: BaF3 (murine pro-B), retroviral pMXs-IRES-Blasticidin
Sequence (P00533 with tags, fused parts or gaps DELINS30-297G): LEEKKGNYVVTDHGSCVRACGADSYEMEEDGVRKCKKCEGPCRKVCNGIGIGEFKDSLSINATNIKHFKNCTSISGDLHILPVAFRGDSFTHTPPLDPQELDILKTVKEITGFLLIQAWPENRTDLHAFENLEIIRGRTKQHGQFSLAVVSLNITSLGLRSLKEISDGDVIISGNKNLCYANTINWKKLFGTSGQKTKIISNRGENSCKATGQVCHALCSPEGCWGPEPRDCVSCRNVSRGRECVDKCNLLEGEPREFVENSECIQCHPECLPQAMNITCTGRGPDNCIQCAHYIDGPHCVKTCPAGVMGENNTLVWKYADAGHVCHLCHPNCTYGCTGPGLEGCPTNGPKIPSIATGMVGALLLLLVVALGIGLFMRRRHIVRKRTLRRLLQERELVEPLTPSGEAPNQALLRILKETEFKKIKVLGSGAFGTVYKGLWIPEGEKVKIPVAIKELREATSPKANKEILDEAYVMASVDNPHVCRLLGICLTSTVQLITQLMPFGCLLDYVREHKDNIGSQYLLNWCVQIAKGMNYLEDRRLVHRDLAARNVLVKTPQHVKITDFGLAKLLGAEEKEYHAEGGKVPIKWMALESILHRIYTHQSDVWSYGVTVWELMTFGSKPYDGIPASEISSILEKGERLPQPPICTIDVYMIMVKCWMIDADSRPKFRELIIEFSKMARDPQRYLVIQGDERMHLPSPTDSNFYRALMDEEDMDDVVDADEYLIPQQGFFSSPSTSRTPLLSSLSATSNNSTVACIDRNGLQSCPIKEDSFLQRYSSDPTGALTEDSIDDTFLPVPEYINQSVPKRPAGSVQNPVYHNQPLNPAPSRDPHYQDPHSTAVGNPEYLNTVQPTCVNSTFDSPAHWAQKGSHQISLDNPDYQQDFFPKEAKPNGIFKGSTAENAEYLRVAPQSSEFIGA
Experiment: BaF3 cell proliferation assay, EGFR V3 (Table A)
Type: cell-based
Conditions: potency code, 3 days, CellTiterGlo, read-out: EGFR V3 (Activity for Inhibiting EGFR)
Protocol: Retroviral Production: EGFR mutants were subcloned into pMXs-IRES-Blasticidin (RTV-016, Cell Biolabs, San Diego, Calif.). Retroviral expression vector retrovirus was produced by transient transfection of HEK 293T cells with the retroviral EGFR mutant expression vector pMXs-IRES-Blasticidin (RTV-016, Cell Biolabs), pCMV-Gag-Pol vector and pCMV-VSV-G-Envelope vector. […] EC50 values were determined with the same application.
Readout Kind: IC50

Known results for molecules:
1) C=CC(=O)Nc1cc2c(Nc3ccc(OCc4ccccn4)c(Cl)c3)ncnc2cc1C#CC1CC2(C1)CN(C)C2 [compound 124]	30 to 50 nM
2) C=CC(=O)Nc1cc2c(Nc3ccc(OCc4ccccn4)c(Cl)c3)ncnc2cc1OCCCN1CCOCC1 [compound 21]	20 to 30 nM
3) C=CC(=O)Nc1cc2c(Nc3ccc(Oc4ccc(Cl)cc4)cc3)ncnc2cc1OCCN1CCOCC1 [compound 74]	50 to 100 nM
4) C=CC(=O)Nc1cc2c(Nc3ccc(OCc4ccccn4)cc3F)ncnc2cc1OC1CCN(C)C1 (centres unmarked) [compound 59]	30 to 50 nM

Incoming: Give measured IC50 for C=CC(=O)Nc1cc2c(Nc3ccc(OCc4ccccn4)c(Cl)c3)ncnc2cc1N1CC(N2CCOCC2)C1 [compound 44] (EGFR V3 (Homo sapiens, UniProt P00533, DELINS30-297G)).
Outgoing: 100 to 200 nM

----------
target: HER2 YVMA (Homo sapiens, UniProt P04626, INS775YVMA); construct: expressed in transfected cells; host or cells: BaF3 (murine pro-B); assay: BaF3 cell proliferation assay, HER2 YVMA (Table B); format: cell-based; conditions: potency code, 3 days, CellTiterGlo, read-out: HER2 YVMA (Activity for Inhibiting HER2)
Sequence (P04626 with tags, fused parts or gaps INS775YVMA): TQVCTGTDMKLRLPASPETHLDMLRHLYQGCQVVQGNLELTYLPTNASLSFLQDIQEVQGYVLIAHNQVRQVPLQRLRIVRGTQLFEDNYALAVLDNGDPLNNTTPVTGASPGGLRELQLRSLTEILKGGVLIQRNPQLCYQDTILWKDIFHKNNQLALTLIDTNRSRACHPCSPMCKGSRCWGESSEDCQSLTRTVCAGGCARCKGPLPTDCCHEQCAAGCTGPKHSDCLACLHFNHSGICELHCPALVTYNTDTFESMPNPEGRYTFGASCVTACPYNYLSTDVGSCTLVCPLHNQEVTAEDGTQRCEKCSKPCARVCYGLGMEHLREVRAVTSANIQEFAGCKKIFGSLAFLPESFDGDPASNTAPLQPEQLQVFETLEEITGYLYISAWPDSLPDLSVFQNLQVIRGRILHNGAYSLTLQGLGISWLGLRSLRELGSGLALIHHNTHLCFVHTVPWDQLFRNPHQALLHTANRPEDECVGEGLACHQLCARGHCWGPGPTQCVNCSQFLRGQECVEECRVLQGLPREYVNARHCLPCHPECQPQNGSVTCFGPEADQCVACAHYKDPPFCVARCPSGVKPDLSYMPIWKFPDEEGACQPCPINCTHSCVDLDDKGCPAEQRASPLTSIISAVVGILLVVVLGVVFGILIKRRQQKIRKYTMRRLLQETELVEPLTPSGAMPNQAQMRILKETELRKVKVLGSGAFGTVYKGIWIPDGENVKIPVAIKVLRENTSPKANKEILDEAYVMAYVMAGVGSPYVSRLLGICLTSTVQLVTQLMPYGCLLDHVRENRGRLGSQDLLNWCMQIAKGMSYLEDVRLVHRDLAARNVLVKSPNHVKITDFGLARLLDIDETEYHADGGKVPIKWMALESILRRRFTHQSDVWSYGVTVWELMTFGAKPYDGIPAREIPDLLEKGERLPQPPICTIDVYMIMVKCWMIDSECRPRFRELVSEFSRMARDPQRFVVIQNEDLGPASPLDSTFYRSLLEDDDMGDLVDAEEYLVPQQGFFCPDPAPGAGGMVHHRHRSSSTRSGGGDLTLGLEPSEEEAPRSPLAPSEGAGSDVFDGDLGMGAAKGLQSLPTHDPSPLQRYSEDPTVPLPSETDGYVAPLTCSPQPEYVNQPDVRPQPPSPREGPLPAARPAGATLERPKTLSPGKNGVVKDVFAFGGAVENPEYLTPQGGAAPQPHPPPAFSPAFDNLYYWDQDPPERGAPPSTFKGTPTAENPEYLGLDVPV
pIC50: −log10 of the molar value.
The following compounds are shown together with reported pIC50 values.

Known results for compounds:
1) CC#CC(=O)Nc1cc2c(Nc3ccc(OCc4ccccn4)c(Cl)c3)ncnc2cc1OCCN1CCN(C)CC1	8.00 to 8.30
2) C=CC(=O)Nc1cc2c(Nc3ccc(OCc4cccc(C)n4)c(Cl)c3)ncnc2cc1OCCN1CC(OC)C1	6.30 to 6.52
3) C=CC(=O)Nc1cc2c(Nc3cc(Cl)c(OCc4ccccn4)cc3F)ncnc2cc1OC1CCN(C)C1 (centres unmarked)	6.30 to 6.52
4) C=CC(=O)Nc1cc2c(Nc3ccc(OCc4ccccn4)c(Cl)c3)ncnc2cc1OCC(C)(C)N(C)C	6.30 to 6.52

Incoming: Please report pIC50 for the following compound: C=CC(=O)Nc1cc2c(Nc3ccc(OCc4ccccn4)c(Cl)c3)ncnc2cc1OCC1(N(C)C)CC1
Outgoing: 6.70 to 7.00

Incoming: Please report pIC50 for the following compound: C=CC(=O)Nc1cc2c(Nc3ccc(OCc4cccc(F)n4)c(Cl)c3)ncnc2cc1OCCN1CC2CCC(C1)O2
Outgoing: 6.52 to 6.70

Incoming: Please report pIC50 for the following compound: C=CC(=O)Nc1cc2c(Nc3ccc(OCc4ccccn4)c(Cl)c3)ncnc2cc1OC[C@H]1CCN(C)C1
Outgoing: 7.30 to 7.52

Incoming: Please report pIC50 for the following compound: C=CC(=O)Nc1cc2c(Nc3cc(Cl)c(OCc4ccccn4)cc3F)ncnc2cc1OCCN1CCOCC1
Outgoing: 7.00 to 7.30

Incoming: Please report pIC50 for the following compound: C=CC(=O)Nc1cc2c(Nc3ccc(OCc4ccccn4)c(Cl)c3)ncnc2cc1C#C[C@H]1CCNC1
Outgoing: 6.70 to 7.00

Incoming: Please report pIC50 for the following compound: CC#CC(=O)Nc1cc2c(Nc3ccc(OCc4ccncn4)c(Cl)c3)ncnc2cc1OCCCN1CCOCC1
Outgoing: 6.70 to 7.00

Incoming: Please report pIC50 for the following compound: C=CC(=O)Nc1cc2c(Nc3ccc(Oc4cccnc4)cc3)ncnc2cc1OCCN1CCOCC1
Outgoing: 6.30 to 6.52

----------
target: EGFR V3 (Homo sapiens, UniProt P00533, DELINS30-297G); construct: expressed in transfected cells; host or cells: BaF3 (murine pro-B), retroviral pMXs-IRES-Blasticidin; experiment: Activity for inhibiting EGFR (Table A), EGFR V3 (EGFR-Viii); type: cell-based; conditions: read-out: EGFR V3, potency code (IC50)
pIC50: −log10 of the molar value.
The following molecules are shown together with reported pIC50 values.

Known results for molecules:
1) C=CC(=O)Nc1cc2c(Nc3ccc(OCc4ccccn4)c(Cl)c3)ncnc2cc1OC[C@H]1COCCN1 [compound 90]	7.30 to 7.52
2) C=CC(=O)Nc1cc2c(Nc3ccc(OCc4ccccn4)c(Cl)c3)ncnc2cc1N1CC2(CN(C)C2)C1 [compound 45]	6.52 to 6.70
3) C=CC(=O)Nc1cc2c(Nc3ccc(OCc4ccccn4)c(Cl)c3)ncnc2cc1OCCN1C2CCC1COC2 [compound 31]	7.30 to 7.52
4) C=CC(=O)Nc1cc2c(Nc3ccc(OCc4cccc(F)c4)c(Cl)c3)ncnc2cc1OCCCN1C[C@H]2C[C@@H]1CO2 [compound 160]	6.70 to 7.00
5) C=CC(=O)Nc1cc2c(Nc3ccc(Oc4ccc(C)nc4)c(C)c3)ncnc2cc1C#C[C@@H]1[C@H]2CN(C)C[C@@H]12 [compound 104]	7.30 to 7.52

Incoming: Please report pIC50 for the following molecule: C=CC(=O)Nc1cc2c(Nc3ccc(OCc4ccccn4)c(Cl)c3)ncnc2cc1C#CC1[C@H]2CNC[C@@H]12 (stereo partly shown) [compound 105]
Outgoing: 7.00 to 7.30

Incoming: Please report pIC50 for the following molecule: C=CC(=O)Nc1cc2c(Nc3ccc(OCc4ccccn4)c(Cl)c3)ncnc2cc1C#C[C@H]1CCN(C)C1 [compound 85]
Outgoing: 7.52 to 7.70

----------
target: EGFR WT (Homo sapiens); assay: BaF3 cell proliferation assay, EGFR WT (Table A); assay type: cell-based; settings: potency code, 3 days, CellTiterGlo, read-out: EGFR WT (Activity for Inhibiting EGFR)
Sequence (P00533 25-1210 N540K): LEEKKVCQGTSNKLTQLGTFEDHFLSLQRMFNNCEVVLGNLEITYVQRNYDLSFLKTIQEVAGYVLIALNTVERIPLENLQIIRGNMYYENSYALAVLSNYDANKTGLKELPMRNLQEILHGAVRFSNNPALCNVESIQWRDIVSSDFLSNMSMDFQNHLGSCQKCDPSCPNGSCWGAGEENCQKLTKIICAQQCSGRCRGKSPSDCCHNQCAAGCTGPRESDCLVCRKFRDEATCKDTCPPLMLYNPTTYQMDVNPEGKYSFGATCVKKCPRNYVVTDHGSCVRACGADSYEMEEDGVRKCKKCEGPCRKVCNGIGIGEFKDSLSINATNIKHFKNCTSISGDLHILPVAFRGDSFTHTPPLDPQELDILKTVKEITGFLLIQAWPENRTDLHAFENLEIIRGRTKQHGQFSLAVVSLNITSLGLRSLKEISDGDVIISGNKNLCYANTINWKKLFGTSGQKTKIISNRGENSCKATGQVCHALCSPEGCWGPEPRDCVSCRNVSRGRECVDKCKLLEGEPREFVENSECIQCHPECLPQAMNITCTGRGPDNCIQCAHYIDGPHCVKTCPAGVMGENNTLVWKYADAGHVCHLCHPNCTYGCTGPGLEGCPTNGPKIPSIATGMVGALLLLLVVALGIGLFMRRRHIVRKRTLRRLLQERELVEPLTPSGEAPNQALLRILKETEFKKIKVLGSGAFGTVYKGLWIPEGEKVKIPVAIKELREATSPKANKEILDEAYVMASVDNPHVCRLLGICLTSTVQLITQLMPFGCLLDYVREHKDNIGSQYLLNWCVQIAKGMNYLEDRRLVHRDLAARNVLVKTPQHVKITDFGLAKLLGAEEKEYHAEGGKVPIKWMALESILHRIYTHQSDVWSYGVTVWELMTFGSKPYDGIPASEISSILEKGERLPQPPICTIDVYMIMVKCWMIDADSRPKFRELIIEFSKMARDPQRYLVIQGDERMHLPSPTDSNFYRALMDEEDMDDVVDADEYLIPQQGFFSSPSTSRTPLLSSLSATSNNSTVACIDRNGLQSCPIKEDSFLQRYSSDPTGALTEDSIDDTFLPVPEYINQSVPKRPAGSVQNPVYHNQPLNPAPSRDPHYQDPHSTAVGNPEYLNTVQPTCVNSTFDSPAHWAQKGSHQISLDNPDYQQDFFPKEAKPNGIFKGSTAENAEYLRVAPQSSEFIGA
Readout Kind: IC50

Known results for compounds:
1. C=CC(=O)Nc1cc2c(Nc3ccc(OCc4ccccn4)c(Cl)c3)ncnc2cc1OCCCN1CC2CC1CO2 (stereo not drawn)	200 to 300 nM
2. C=CC(=O)Nc1cc2c(Nc3ccc(OCc4cnccn4)c(Cl)c3)ncnc2cc1OCCN1CC2CCC(C1)O2	> 1000 nM
3. C=CC(=O)Nc1cc2c(Nc3ccc(OCc4ccccn4)c(Cl)c3)ncnc2cc1OC1CC(N(C)C)C1 (stereo not drawn)	300 to 500 nM
4. CC#CC(=O)Nc1cc2c(Nc3ccc(OCc4ccccn4)c(Cl)c3)ncnc2cc1N(C)CCN1CCOCC1	200 to 300 nM

Incoming: Please report IC50 for the following compound: C=CC(=O)Nc1cc2c(Nc3ccc(OCc4ccccn4)c(Cl)c3)ncnc2cc1OC1CCN(C)CC1
Outgoing: 200 to 300 nM

Incoming: Please report IC50 for the following compound: C=CC(=O)Nc1cc2c(Nc3ccc(OCc4ccccn4)c(Cl)c3)ncnc2cc1OCCN1CC(F)C1
Outgoing: 500 to 1000 nM

----------
biological target: HER2 YVMA (Homo sapiens, UniProt P04626, INS775YVMA); construct: expressed in transfected cells; host or cells: BaF3 (murine pro-B); test: BaF3 cell proliferation assay, HER2 YVMA (Table B); type: cell-based; conditions: potency code, 3 days, CellTiterGlo, read-out: HER2 YVMA (Activity for Inhibiting HER2)
The following compounds are shown together with reported IC50 values.

Known results for compounds:
1) C=CC(=O)Nc1cc2c(Nc3ccc(OCc4ccccn4)c(Cl)c3)ncnc2cc1OCCN1CC(F)C1	50 to 100 nM
2) C=CC(=O)Nc1cc2c(Nc3ccc(Oc4ccccc4)c(C)c3)ncnc2cc1C#C[C@@H]1[C@H]2CN(C)C[C@@H]12	100 to 200 nM
3) C=CC(=O)Nc1cc2c(Nc3ccc(OCc4ccccn4)c(Cl)c3)ncnc2cc1C#CC(C)(C)N(C)C	50 to 100 nM
4) C=CC(=O)Nc1cc2c(Nc3ccc(OCc4ccccn4)cc3F)ncnc2cc1OCCN1CCOCC1	200 to 300 nM
5) CC#CC(=O)Nc1cc2c(Nc3ccc(OCc4cnccn4)c(Cl)c3)ncnc2cc1OCCCN1CCOCC1	10 to 20 nM

Incoming: Please report IC50 for the following compound: C=CC(=O)Nc1cc2c(Nc3ccc(OCc4ccccn4)c(Cl)c3)ncnc2cc1OCCN1CCC2C1CCN2C (stereo not shown)
Outgoing: 100 to 200 nM

Incoming: Please report IC50 for the following compound: C=CC(=O)Nc1cc2c(Nc3ccc(OCc4ccccn4)c(Cl)c3)ncnc2cc1OCCN1CC2COCC2C1 (stereo not shown)
Outgoing: 50 to 100 nM

Incoming: Please report IC50 for the following compound: C=CC(=O)Nc1cc2c(Nc3ccc(OCc4cccc(C)n4)c(Cl)c3)ncnc2cc1OCCN1CC2CCC(C1)O2
Outgoing: 500 to 1000 nM

Incoming: Please report IC50 for the following compound: C=CC(=O)Nc1cc2c(Nc3ccc(OCc4ccccn4)c(Cl)c3)ncnc2cc1OCC12CCC(CC1)N2C
Outgoing: 500 to 1000 nM

Incoming: Please report IC50 for the following compound: C=CC(=O)Nc1cc2c(Nc3ccc(OCc4ccccn4)c(Cl)c3)ncnc2cc1OC[C@H]1C[C@@H]2CN(C)C[C@@H]2C1
Outgoing: 50 to 100 nM

Incoming: Please report IC50 for the following compound: C=CC(=O)Nc1cc2c(Nc3ccc(Oc4ccc(C)nc4)c(C)c3)ncnc2cc1C#CC(C)(C)N(C)C
Outgoing: 500 to 1000 nM

Incoming: Please report IC50 for the following compound: C=CC(=O)Nc1cc2c(Nc3cnc(NCc4ccccn4)c(Cl)c3)ncnc2cc1OCCN1CCOCC1
Outgoing: 500 to 1000 nM

Incoming: Please report IC50 for the following compound: C=CC(=O)Nc1cc2c(Nc3ccc(OCc4ccccn4)c(Cl)c3)ncnc2cc1OC1CCN(C)CC1
Outgoing: 200 to 300 nM

Each recorded value in this set is attributed to patent US11034672B1.
